Cited source for all entries: paper PMC6018746

Test system: panel of 240 cancer cell lines
measurement notes: 10-day growth/death assay (Eurofins panel)
Type: cell-based
test conditions: Homo sapiens, AU565, AU565; read-out: gIC50
measured property: pIC50
Remember the convention: pIC50 equals -log10 of concentration in molar.

*Q* Entry under review: O=C(NC[C@H](O)CN1CCc2ccccc2C1)c1ccnc(NC2CCC2)c1 . Reported pIC50?
*A* 7.84

====

System: panel of hematologic and solid cancer lines
measurement notes: 6-day in vitro growth/death assay
Assay type: cell-based, human
test conditions: Homo sapiens, THP-1, THP-1; read-out: gIC50
measured property: IC50 (nM)
# unit: nM | format: bare number

*Q* Entry under review: O=C(NC[C@H](O)CN1CCc2ccccc2C1)c1ccnc(NC2CCC2)c1 . Reported IC50?
*A* 951
